The measured values listed here are drawn from patent US20180030151A1.

- tgt: recombinant human TFPI (tissue factor pathway inhibitor) (human, UniProt P10646 29-304)
- assayDetails: cell-based or functional assay
In this section, each of the binders is paired with its reported FXa assay OD, 5 nM Ab, 10 nM TFPI.
Just the number, please.

Query: Write down FXa assay OD, 5 nM Ab, 10 nM TFPI measured for item clone 13 (antibody, V domains shown) VH: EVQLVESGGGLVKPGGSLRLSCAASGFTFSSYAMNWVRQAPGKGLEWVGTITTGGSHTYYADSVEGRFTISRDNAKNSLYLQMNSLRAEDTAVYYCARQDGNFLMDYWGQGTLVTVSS VL: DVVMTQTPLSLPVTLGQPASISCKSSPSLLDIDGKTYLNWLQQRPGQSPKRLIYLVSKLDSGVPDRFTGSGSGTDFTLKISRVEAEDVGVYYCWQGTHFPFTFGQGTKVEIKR
Result: 0.37

Query: Write down FXa assay OD, 5 nM Ab, 10 nM TFPI measured for item clone 12 (antibody, V domains shown, human IgG4/kappa IgG as purified; also called No. 12 antibody) VH: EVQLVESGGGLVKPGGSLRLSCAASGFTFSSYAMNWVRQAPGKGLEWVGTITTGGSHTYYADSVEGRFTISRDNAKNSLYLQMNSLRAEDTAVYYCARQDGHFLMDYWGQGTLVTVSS VL: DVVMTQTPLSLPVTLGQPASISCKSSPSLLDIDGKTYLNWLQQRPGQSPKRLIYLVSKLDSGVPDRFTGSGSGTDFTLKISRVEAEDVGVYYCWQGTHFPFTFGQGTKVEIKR
Result: 0.321

Query: Write down FXa assay OD, 5 nM Ab, 10 nM TFPI measured for item clone 8 (antibody, V domains shown) VH: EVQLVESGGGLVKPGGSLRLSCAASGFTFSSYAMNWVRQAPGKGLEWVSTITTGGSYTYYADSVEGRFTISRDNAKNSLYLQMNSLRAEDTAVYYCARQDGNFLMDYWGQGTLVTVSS VL: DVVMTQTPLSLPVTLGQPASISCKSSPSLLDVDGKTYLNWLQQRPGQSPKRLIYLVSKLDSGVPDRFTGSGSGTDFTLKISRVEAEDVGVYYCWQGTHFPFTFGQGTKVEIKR
Result: 0.256

Query: Write down FXa assay OD, 5 nM Ab, 10 nM TFPI measured for item clone 2 (antibody, V domains shown) VH: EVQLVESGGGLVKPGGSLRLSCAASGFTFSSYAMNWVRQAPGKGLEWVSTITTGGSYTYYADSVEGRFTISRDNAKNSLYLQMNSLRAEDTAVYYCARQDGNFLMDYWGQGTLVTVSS VL: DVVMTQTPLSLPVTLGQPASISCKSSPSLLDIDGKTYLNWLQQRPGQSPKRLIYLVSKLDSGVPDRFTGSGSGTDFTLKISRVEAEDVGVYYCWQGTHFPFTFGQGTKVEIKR
Result: 0.271

Query: Write down FXa assay OD, 5 nM Ab, 10 nM TFPI measured for item clone 1202 (antibody, V domains shown, scFv on yeast at selection; human IgG4/kappa IgG as purified; also called No. 1202 antibody) VH: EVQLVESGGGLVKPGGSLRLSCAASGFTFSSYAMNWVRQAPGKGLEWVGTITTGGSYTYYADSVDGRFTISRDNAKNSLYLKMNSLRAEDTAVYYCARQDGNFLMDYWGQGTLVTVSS VL: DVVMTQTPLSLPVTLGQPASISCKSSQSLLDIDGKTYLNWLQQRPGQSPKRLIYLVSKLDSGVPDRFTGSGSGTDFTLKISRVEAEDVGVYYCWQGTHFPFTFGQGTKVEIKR
Result: 0.382

Query: Write down FXa assay OD, 5 nM Ab, 10 nM TFPI measured for item clone 11 (antibody, V domains shown) VH: EVQLVESGGGLVKPGGSLRLSCAASGFTFSSYAMNWVRQAPGKGLEWVGTITTGGSYTYYADSVEGRFTISRDNAKNSLYLQMNSLRAEDTAVYYCARQDGNFLMDYWGQGTLVTVSS VL: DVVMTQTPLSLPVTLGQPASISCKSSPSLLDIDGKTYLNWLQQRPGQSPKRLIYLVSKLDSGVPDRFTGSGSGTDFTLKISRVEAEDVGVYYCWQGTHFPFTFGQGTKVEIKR
Result: 0.244

Query: Write down FXa assay OD, 5 nM Ab, 10 nM TFPI measured for item clone 1023 (antibody, V domains shown, scFv on yeast at selection; human IgG4/kappa IgG as purified) VH: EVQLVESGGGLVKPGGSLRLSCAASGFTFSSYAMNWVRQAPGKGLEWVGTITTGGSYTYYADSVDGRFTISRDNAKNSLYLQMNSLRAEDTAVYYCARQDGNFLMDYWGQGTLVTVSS VL: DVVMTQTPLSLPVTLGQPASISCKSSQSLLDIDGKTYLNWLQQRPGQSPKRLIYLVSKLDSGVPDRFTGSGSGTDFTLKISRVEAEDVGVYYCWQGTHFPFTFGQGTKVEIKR
Result: 0.208
